- protocol.summary: Cytotoxicity by MTT assay in Vero E6 cells
- Assay type: cell-based, Green Monkey
- settings: green monkey, Vero E6 cells; Vero-E6, MTT, 48 h
observation.type: CC50 at 48 h

Entry C=Cc1c(C)c2cc3nc(c4c5[nH]c(cc6nc(cc1[nH]2)C(C)=C6CC)c(C)c5C(=O)[C@@H]4C(=O)OC)[C@@H](CCC(=O)O)[C@@H]3C [PheoA, Pheophorbide a] : reported CC50 at 48 h = ? > 8.42 µM

----------
- protocol.summary: Cytotoxicity by MTT assay in A549-ACE2 cells
- Format: cell-based
- settings: human
observation.type: CC50 at 48 h
Report the figure along with its unit, number first.

Entry C=Cc1c(C)c2cc3nc(c4c5[nH]c(cc6nc(cc1[nH]2)C(C)=C6CC)c(C)c5C(=O)[C@@H]4C(=O)OC)[C@@H](CCC(=O)O)[C@@H]3C [PheoA, Pheophorbide a] : reported CC50 at 48 h = ? 2600 nM

----------
- Tested on: hCoV-229E
- protocol.summary: microbe, parasite or virus in culture
- Assay type: cell-based
- settings: Human coronavirus 229E, Huh-7, 48 h
observation.type: pEC50
FYI, pEC50 means -log10 of a concentration in mol per litre.

Entry C=Cc1c(C)c2cc3nc(c4c5[nH]c(cc6nc(cc1[nH]2)C(C)=C6CC)c(C)c5C(=O)[C@@H]4C(=O)OC)[C@@H](CCC(=O)O)[C@@H]3C [PheoA, Pheophorbide a] : reported pEC50 = ? 6.89

----------
- System: SARS-CoV-2
- protocol.summary: Antiviral activity by immunofluorescence microscopy in Vero E6 cells
- Assay type: cell-based
- settings: Severe acute respiratory syndrome coronavirus 2, Vero C1008, 48 h, Vero E6, MOI 0.005, 48 h, PROBIT regression
observation.type: pEC50
FYI, pEC50 means -log10 of a concentration in mol per litre.

{"compound": "C=Cc1c(C)c2cc3nc(c4c5[nH]c(cc6nc(cc1[nH]2)C(C)=C6CC)c(C)c5C(=O)[C@@H]4C(=O)OC)[C@@H](CCC(=O)O)[C@@H]3C [Semi-synthetic PheoA, Pheophorbide a]", "observation.type": "pEC50", "value": 7.29}

Entry C=Cc1c(C)c2cc3nc(c4c5[nH]c(cc6nc(cc1[nH]2)C(C)=C6CC)c(C)c5C(=O)C4)[C@@H](CCC(=O)O)[C@@H]3C [pPheoA, pyropheophorbide a] : reported pEC50 = ? 6.73

----------
- Test system: SARS-CoV-2
- protocol.summary: Antiviral activity by immunofluorescence microscopy in A549-ACE2 cells
- Format: cell-based
- settings: Severe acute respiratory syndrome coronavirus 2, A549-ACE2, 48 h, A549-ACE2, MOI 0.01, 48 h, PROBIT regression
observation.type: EC50 (nM)
// return numeric value only (unit: nM, not printed)

Entry C=Cc1c(C)c2cc3nc(c4c5[nH]c(cc6nc(cc1[nH]2)C(C)=C6CC)c(C)c5C(=O)[C@@H]4C(=O)OC)[C@@H](CCC(=O)O)[C@@H]3C [Semi-synthetic PheoA, Pheophorbide a] : reported EC50 = ? 74
